Recorded values, source patent US10221173B2.

Target: recombinant human Estrogen Receptor alpha ligand binding domain (ER alpha-LBD (GST)) (Homo sapiens (Human))
Sequence (P03372 307-554): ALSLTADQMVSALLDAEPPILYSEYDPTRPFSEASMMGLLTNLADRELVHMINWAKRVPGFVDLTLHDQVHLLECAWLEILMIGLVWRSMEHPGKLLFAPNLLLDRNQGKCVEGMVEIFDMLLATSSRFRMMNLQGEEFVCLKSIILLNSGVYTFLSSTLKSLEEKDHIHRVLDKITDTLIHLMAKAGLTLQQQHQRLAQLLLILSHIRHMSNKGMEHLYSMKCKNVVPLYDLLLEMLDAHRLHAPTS
Assay: ERα binding assay (LanthaScreen TR-FRET competition)
Entries and their pIC50 values follow.
Note on units: pIC50 is unitless, being -log10 of a concentration expressed in mol/L.

Known pIC50 results, listed for orientation:
molecule: Cc1ncc(OCCNCCCF)cc1[C@@H]1c2[nH]c3ccccc3c2C[C@@H](C)N1CC(F)(F)F [Example 37]
numericValue: 7.92

molecule: C[C@@H]1Cc2c([nH]c3ccccc23)[C@@H](c2nccc(OCCNCCCF)c2F)N1CC(F)(F)CO [Example 97]
numericValue: 8.66

Query :: Name the recorded pIC50 of the molecule listed here: C[C@@H]1Cc2c([nH]c3ccccc23)[C@@H](c2c(F)ccc(OCCNCCCF)c2Cl)N1CC(F)(F)CO [Example 85]
Result :: 8.89

Query :: Check the records and state pIC50 for Cc1ccc(OCCNCCCF)c(C)c1[C@@H]1c2[nH]c3ccccc3c2C[C@@H](C)N1CC(F)(F)F [Example 79]
Result :: 8.85

---

Assay: Log D (shake flask, 1-octanol/aqueous buffer)
Type: physicochemical
Details: 1-octanol/aqueous buffer, pH 7.4, pH 7.4
measurementType: logD

Record excerpt, results attached:
compoundStructureString: C[C@@H]1Cc2c([nH]c3ccccc23)[C@@H](c2c(F)ccc(OCCNCCCF)c2F)N1CC1(S(C)(=O)=O)CC1
logD: 2.4
--
compoundStructureString: Cc1c(OCCNCCCF)ccnc1[C@@H]1c2[nH]c3ccccc3c2C[C@@H](C)N1CC(F)(F)CO
logD: 2.4
--
compoundStructureString: C[C@@H]1Cc2c([nH]c3ccccc23)[C@@H](c2c(Cl)ccc(OCCNCCCF)c2Cl)N1C[C@H](C)C(=O)O
logD: 1

Query :: Dear colleague, please send me the reported logD for COc1ccc(NCCNCCCF)cc1[C@@H]1c2[nH]c3ccccc3c2C[C@@H](C)N1CC(F)(F)F when you can.
Result :: 3

Query :: // Input: COc1c(F)cc(OCCNCCCF)cc1[C@@H]1c2[nH]c3ccccc3c2C[C@@H](C)N1CC(F)(F)F . Output its logD only.
Result :: 4.2

Query :: Report logD for COc1nnc(OCCNCCCF)cc1[C@@H]1c2[nH]c3ccccc3c2C[C@@H](C)N1CC(F)(F)F
Result :: 3.2

Query :: Look up and report measured logD for this entry: COc1ccc(OCCNCCCF)cc1[C@@H]1c2[nH]c3ccccc3c2C[C@@H](C)N1CC(F)(F)F
Result :: 3.7

Query :: Report logD, nothing else, for this compound: COc1cc(F)c(OCCNCCCF)cc1[C@@H]1c2[nH]c3ccccc3c2C[C@@H](C)N1CC(F)(F)F
Result :: 3.8

Query :: Please list logD recorded for the compound C[C@@H]1Cc2c([nH]c3ccc(F)cc23)[C@@H](c2c(F)cnc(OCCNCCCF)c2F)N1CC(F)(F)CO
Result :: 3

Query :: Retrieve logD measured for Cc1c(N(C)CCNCCCF)ccc(F)c1[C@@H]1c2[nH]c3ccccc3c2C[C@@H](C)N1C[C@H](C)C(=O)O and print it.
Result :: 1.1

Query :: Input COc1c(F)cc(OCCNCCCF)c(F)c1[C@@H]1c2[nH]c3ccccc3c2C[C@@H](C)N1CC(F)(F)F , output reported logD.
Result :: > 3.2
